# subject_of_test: Gal(b1-4)GlcNAc(b1-3)Gal(b1-4)GlcNAc(b1-2)Man(a1-3)[Gal(b1-4)GlcNAc(b1-3)Gal(b1-4)GlcNAc(b1-2)Man(a1-6)]Man(b1-4)GlcNAc(b1-4)GlcNAc
# protocol_notes: glycan array binding signal (z-score within array); higher = stronger binding
# setup_conditions: glycan notation: IUPAC condensed, linker removed
Shown is part of a subset that was picked to be rich in the strongest signals.
readout_type: glycan array binding signal (z-score)

| binder | readout_type | reported |
| --- | --- | --- |
| Mnn9-2N3 (Aspergillus fumigatus) (protein) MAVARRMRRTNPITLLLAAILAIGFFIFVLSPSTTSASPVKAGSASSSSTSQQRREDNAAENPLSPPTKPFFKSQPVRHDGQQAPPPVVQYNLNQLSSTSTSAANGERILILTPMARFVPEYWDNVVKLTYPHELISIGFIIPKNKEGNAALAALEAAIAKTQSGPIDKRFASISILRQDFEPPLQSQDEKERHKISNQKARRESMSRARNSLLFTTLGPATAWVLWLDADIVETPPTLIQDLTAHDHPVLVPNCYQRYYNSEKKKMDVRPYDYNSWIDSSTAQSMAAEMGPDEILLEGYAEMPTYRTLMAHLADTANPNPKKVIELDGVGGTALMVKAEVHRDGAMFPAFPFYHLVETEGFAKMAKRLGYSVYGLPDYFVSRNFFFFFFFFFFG | glycan array binding signal (z-score) | 3.03 |
| Pbx1CASH domain (Cryptococcus neoformans) (protein) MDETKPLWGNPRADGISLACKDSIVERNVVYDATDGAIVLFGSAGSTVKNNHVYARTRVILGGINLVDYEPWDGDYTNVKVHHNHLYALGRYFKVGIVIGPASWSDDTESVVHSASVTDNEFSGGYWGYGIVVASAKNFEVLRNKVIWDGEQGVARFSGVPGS | glycan array binding signal (z-score) | 5.46 |
| Als3-41 (Candida albicans) (protein) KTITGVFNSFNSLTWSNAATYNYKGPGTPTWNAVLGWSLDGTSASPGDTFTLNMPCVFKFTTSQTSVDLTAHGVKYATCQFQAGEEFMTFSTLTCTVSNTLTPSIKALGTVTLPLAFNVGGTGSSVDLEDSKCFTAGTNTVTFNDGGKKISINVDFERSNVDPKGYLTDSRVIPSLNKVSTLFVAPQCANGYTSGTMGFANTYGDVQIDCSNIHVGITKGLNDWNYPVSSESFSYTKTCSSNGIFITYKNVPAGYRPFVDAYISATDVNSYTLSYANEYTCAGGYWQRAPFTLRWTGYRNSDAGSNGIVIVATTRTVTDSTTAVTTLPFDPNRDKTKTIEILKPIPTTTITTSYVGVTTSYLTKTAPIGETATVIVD | glycan array binding signal (z-score) | 6.2 |
| Epa9 (Candida glabrata), CAGL0A01386g (protein) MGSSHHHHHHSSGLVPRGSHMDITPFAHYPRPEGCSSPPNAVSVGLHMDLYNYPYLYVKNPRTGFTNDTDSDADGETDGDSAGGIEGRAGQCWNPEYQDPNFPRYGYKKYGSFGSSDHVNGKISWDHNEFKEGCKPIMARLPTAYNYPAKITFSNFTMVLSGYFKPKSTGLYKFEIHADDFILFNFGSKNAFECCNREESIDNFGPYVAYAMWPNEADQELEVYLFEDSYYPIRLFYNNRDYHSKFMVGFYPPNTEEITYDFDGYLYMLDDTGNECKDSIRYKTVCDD | glycan array binding signal (z-score) | 1.3 |
| Epa19 (Candida glabrata) (protein) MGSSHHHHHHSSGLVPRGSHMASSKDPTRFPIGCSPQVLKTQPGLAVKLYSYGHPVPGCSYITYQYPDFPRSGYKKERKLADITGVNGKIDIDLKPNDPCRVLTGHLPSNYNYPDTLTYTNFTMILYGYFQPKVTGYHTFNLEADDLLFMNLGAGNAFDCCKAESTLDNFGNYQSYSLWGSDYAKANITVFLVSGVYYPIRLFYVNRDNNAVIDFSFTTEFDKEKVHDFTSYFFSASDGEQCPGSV | glycan array binding signal (z-score) | 2.29 |

Reference source: the supplement of paper PMC8728848
